Molecular target: Bcl-2 protein (Recombinant Human Bcl-2 Protein) (Homo sapiens, UniProt P10415)
Construct: purchased Novus Biologicals NBP2-34889
Sequence (P10415 whole entry): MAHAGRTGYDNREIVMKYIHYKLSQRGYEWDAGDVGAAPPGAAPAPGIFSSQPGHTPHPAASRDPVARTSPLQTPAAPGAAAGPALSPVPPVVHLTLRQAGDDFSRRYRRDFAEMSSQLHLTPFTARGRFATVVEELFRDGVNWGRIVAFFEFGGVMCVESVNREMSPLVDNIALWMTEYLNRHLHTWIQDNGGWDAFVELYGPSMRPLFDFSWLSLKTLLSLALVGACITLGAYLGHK
Assay: AS-MS evaluation of binding of the Example 4 mixture library (1200 compounds/well) to Bcl-2, ASMS ratio (%)
Conditions: AS-MS, Example 4 mixture library, Bcl-2, replicate n = 1
ASMS ratio (%) n = 1 for assorted molecules
Response body: numeric value in %, unit text excluded.

Example results:
CCOc1cncc(-c2cc(CN3CCN(c4ccc(C(=O)NS(=O)(=O)c5ccc(NCCSc6ccccc6)c(C(F)(F)F)c5)cc4)CC3)cc(C(F)(F)F)c2)c1 : 0.0
CCOc1cccc(-c2ccc(C(=O)N3CCN(c4ccc(C(=O)NS(=O)(=O)CCC(F)(F)F)cc4)CC3)c3ccccc23)c1 : 0.0
CCOc1cncc(-c2ccc(CN3CCN(c4ccc(C(=O)NS(=O)(=O)c5ccc(NCCSc6ccccc6)c(C(F)(F)F)c5)nn4)CC3)c3ccccc23)c1 : 16.0

For the molecule CCOc1cncc(-c2cc(CN3CCN(c4ccc(C(=O)NS(=O)(=O)CCC(F)(F)F)cc4)CC3)cc(OCC)c2)c1 , give its reported ASMS ratio (%) n = 1.
0.0

For the molecule CCOc1cccc(C#Cc2ccccc2C(=O)N2CCN(c3ccc(C(=O)NS(=O)(=O)CCC(F)(F)F)nn3)CC2)c1 , give its reported ASMS ratio (%) n = 1.
0.0
